Entries and their Biodistribution: Bone
protocol.description: In vivo biodistribution in mice
Set-up: species or system normal CD-1 male mice
condition.summary: iv, 30 min (0.5 hr) post injection
Lab book: enter the figure in % dose/g, no units written.

compound | value.observed
C[C@H](NC(=O)CCc1ccc([O-])c(CN(CCN(CC(=O)[O-])Cc2cc(CCC(=O)NC(P(=O)(O)O)P(=O)(O)O)ccc2[O-])CC(=O)[O-])c1)C(=O)O.[68Ga+3] [[^68Ga]1d] | 15.3

Please find the next compound below.
**Q:** Please indicate Biodistribution: Bone recorded for O=C([O-])CN(CCN(CC(=O)[O-])Cc1cc(CCC(=O)O)ccc1[O-])Cc1cc(CCC(=O)O)ccc1[O-].[68Ga+3] [[^68Ga]HBED-CC, reference compound]
**A:** 0.28

----------
protocol.description: In vivo biodistribution in mice
Parameters: species or system normal CD-1 male mice
condition.summary: iv, 2 min post injection
# Biodistribution: Blood per entry
Answer with a number only, understood to be in % dose/g.

compound | property.label | value.observed
O=C([O-])CN(CCN(CC(=O)[O-])Cc1cc(CCC(=O)NC(P(=O)(O)O)P(=O)(O)O)ccc1[O-])Cc1cc(CCC(=O)NC(P(=O)(O)O)P(=O)(O)O)ccc1[O-].[68Ga+3] [[^68Ga]2] | Biodistribution: Blood | 9.97

**Q:** Give reported Biodistribution: Blood value for O=C([O-])CN(CCN(CC(=O)[O-])Cc1cc(CCC(=O)NC(P(=O)(O)O)P(=O)(O)O)ccc1[O-])Cc1cc(CCC(=O)NCCCNC(=O)CCc2ccc(O)c(CN(CCN(CC(=O)O)Cc3cc(CCC(=O)NC(P(=O)(O)O)P(=O)(O)O)ccc3O)CC(=O)O)c2)ccc1[O-].[68Ga+3] [[^68Ga]3]
**A:** 8.33

**Q:** Query Biodistribution: Blood for O=C([O-])CN(CCN(CC(=O)[O-])Cc1cc(CCC(=O)N[C@@H](CCC(=O)O)C(=O)O)ccc1[O-])Cc1cc(CCC(=O)NC(P(=O)(O)O)P(=O)(O)O)ccc1[O-].[68Ga+3] [[^68Ga]1f]
**A:** 8.98

**Q:** Retrieve Biodistribution: Blood measured for O=C([O-])CN(CCN(CC(=O)[O-])Cc1cc(CCC(=O)NC(P(=O)(O)O)P(=O)(O)O)ccc1[O-])Cc1cc(CCC(=O)NC2C(O)OC(CO)C(O)C2O)ccc1[O-].[68Ga+3] (stereo not shown) [[^68Ga]1b] and print it.
**A:** 9.22

----------
protocol.description: In vivo biodistribution in mice
Set-up: species or system normal CD-1 male mice
condition.summary: iv, 120 min
Cut-off 40 on bone to muscle ratio, inclusive. At or above means TRUE; below means FALSE.

compound | classification
C[C@H](NC(=O)CCc1ccc([O-])c(CN(CCN(CC(=O)[O-])Cc2cc(CCC(=O)NC(P(=O)(O)O)P(=O)(O)O)ccc2[O-])CC(=O)[O-])c1)C(=O)O.[68Ga+3] [[^68Ga]1d] | TRUE

**Q:** For this compound, is measured bone to muscle ratio 40 or higher? [18F-].[Na+] [[^18F]NaF, reference compound]
**A:** TRUE

**Q:** Exam item: decide whether the reported bone to muscle ratio for O=C([O-])CN(CCN(CC(=O)[O-])Cc1cc(CCC(=O)NC(P(=O)(O)O)P(=O)(O)O)ccc1[O-])Cc1cc(CCC(=O)O)ccc1[O-].[68Ga+3] [[^68Ga]1a] is at least 40.
**A:** TRUE

**Q:** Check this compound for bone to muscle ratio at or above 40: O=C(O)CN1CCN(CC(=O)O)CCN(CC(=O)NC(P(=O)(O)O)P(=O)(O)O)CCN(CC(=O)O)CC1.[68Ga] [[^68Ga]BPAMD, reference compound]
**A:** FALSE

----------
protocol.description: In vivo biodistribution in mice
Parameters: species or system normal CD-1 male mice
condition.summary: iv, 60 min (1 hr) post injection
property.label: Biodistribution: Blood (% dose/g)
Kindly provide the numeric value in % dose/g only, without the unit symbol.

compound | value.observed
[18F-].[Na+] [[^18F]NaF, reference compound] | 0.15

Turning to the following compound.
**Q:** Could you please provide reported Biodistribution: Blood for O=C([O-])CN(CCN(CC(=O)[O-])Cc1cc(CCC(=O)NC(P(=O)(O)O)P(=O)(O)O)ccc1[O-])Cc1cc(CCC(=O)NCC(=O)O)ccc1[O-].[68Ga+3] [[^68Ga]1c] ? Thanks!
**A:** 0.64

----------
protocol.description: In vivo biodistribution in mice
Parameters: species or system normal CD-1 male mice
condition.summary: iv, 120 min post injection
# if measured Biodistribution: Blood < 0.2 % dose/g: true  # else: false

compound | classification
O=C([O-])CN(CCN(CC(=O)[O-])Cc1cc(CCC(=O)N[C@@H](CC(=O)O)C(=O)O)ccc1[O-])Cc1cc(CCC(=O)NC(P(=O)(O)O)P(=O)(O)O)ccc1[O-].[68Ga+3] [[^68Ga]1e] | true
O=C([O-])CN(CCN(CC(=O)[O-])Cc1cc(CCC(=O)NC(P(=O)(O)O)P(=O)(O)O)ccc1[O-])Cc1cc(CCC(=O)NC2C(O)OC(CO)C(O)C2O)ccc1[O-].[68Ga+3] (stereo not shown) [[^68Ga]1b] | false
O=C(O)CN1CCN(CC(=O)O)CCN(CC(=O)NC(P(=O)(O)O)P(=O)(O)O)CCN(CC(=O)O)CC1.[68Ga] [[^68Ga]BPAMD, reference compound] | false
O=C([O-])CN(CCN(CC(=O)[O-])Cc1cc(CCC(=O)NC(P(=O)(O)O)P(=O)(O)O)ccc1[O-])Cc1cc(CCC(=O)NCC(=O)O)ccc1[O-].[68Ga+3] [[^68Ga]1c] | false
O=C([O-])CN(CCN(CC(=O)[O-])Cc1cc(CCC(=O)N[C@@H](CCC(=O)O)C(=O)O)ccc1[O-])Cc1cc(CCC(=O)NC(P(=O)(O)O)P(=O)(O)O)ccc1[O-].[68Ga+3] [[^68Ga]1f] | true

**Q:** Is Biodistribution: Blood of O=C([O-])CN(CCN(CC(=O)[O-])Cc1cc(CCC(=O)NC(P(=O)(O)O)P(=O)(O)O)ccc1[O-])Cc1cc(CCC(=O)NCCCCCC(=O)NCCCC[C@H](NC(=O)N[C@@H](CCC(=O)O)C(=O)O)C(=O)O)ccc1[O-].[68Ga+3] [[^68Ga]1g] strictly below 0.2 % dose/g?
**A:** true

**Q:** Say whether its Biodistribution: Blood is strictly beneath 0.2 % dose/g. Entry: O=C([O-])CN(CCN(CC(=O)[O-])Cc1cc(CCC(=O)NC(P(=O)(O)O)P(=O)(O)O)ccc1[O-])Cc1cc(CCC(=O)NC(P(=O)(O)O)P(=O)(O)O)ccc1[O-].[68Ga+3] [[^68Ga]2]
**A:** false

**Q:** Biodistribution: Blood under 0.2 % dose/g? Item: O=C([O-])CN(CCN(CC(=O)[O-])Cc1cc(CCC(=O)NC(P(=O)(O)O)P(=O)(O)O)ccc1[O-])Cc1cc(CCC(=O)NCCCNC(=O)CCc2ccc(O)c(CN(CCN(CC(=O)O)Cc3cc(CCC(=O)NC(P(=O)(O)O)P(=O)(O)O)ccc3O)CC(=O)O)c2)ccc1[O-].[68Ga+3] [[^68Ga]3]
**A:** false

**Q:** Determine whether this compound shows Biodistribution: Blood lower than 0.2 % dose/g (ties excluded): O=C([O-])CN(CCN(CC(=O)[O-])Cc1cc(CCC(=O)NC(P(=O)(O)O)P(=O)(O)O)ccc1[O-])Cc1cc(CCC(=O)NCCNC(=O)CN2CCN(CC(=O)O)CCN(CC(=O)O)CCN(CC(=O)O)CC2)ccc1[O-].[68Ga+3] [[^68Ga]1h]
**A:** true

**Q:** Biodistribution: Blood under 0.2 % dose/g? Item: O=C([O-])CN(CCN(CC(=O)[O-])Cc1cc(CCC(=O)O)ccc1[O-])Cc1cc(CCC(=O)O)ccc1[O-].[68Ga+3] [[^68Ga]HBED-CC, reference compound]
**A:** true

----------
Listed here are compounds together with their documented Biodistribution: Skin.
protocol.description: In vivo biodistribution in mice
Design: species or system normal CD-1 male mice
condition.summary: iv, 120 min post injection
Procedure: Biodistribution experiments were performed by intravenously administering ^68Ga labeled 1a-h, 2, 3, BPAMD, and [^18F]NaF into normal, healthy male CD-1 mice (25-30 g). The injection activity was 20-30 μCi/animal. […] Organs of interest were harvested, weighed, and counts of radioactivity were measured by a gamma counter. The biodistribution of each sample was calculated as a percentage of the injected dose per gram of wet tissue weight (% ID/g). […]
I only need the number, in % dose/g, no unit after it.

Observe how each entry below is paired with its result.
compound | property.label | value.observed
O=C([O-])CN(CCN(CC(=O)[O-])Cc1cc(CCC(=O)NC(P(=O)(O)O)P(=O)(O)O)ccc1[O-])Cc1cc(CCC(=O)NC(P(=O)(O)O)P(=O)(O)O)ccc1[O-].[68Ga+3] [[^68Ga]2] | Biodistribution: Skin | 0.33
O=C([O-])CN(CCN(CC(=O)[O-])Cc1cc(CCC(=O)O)ccc1[O-])Cc1cc(CCC(=O)O)ccc1[O-].[68Ga+3] [[^68Ga]HBED-CC, reference compound] | Biodistribution: Skin | 0.03
O=C([O-])CN(CCN(CC(=O)[O-])Cc1cc(CCC(=O)NC(P(=O)(O)O)P(=O)(O)O)ccc1[O-])Cc1cc(CCC(=O)NCCCNC(=O)CCc2ccc(O)c(CN(CCN(CC(=O)O)Cc3cc(CCC(=O)NC(P(=O)(O)O)P(=O)(O)O)ccc3O)CC(=O)O)c2)ccc1[O-].[68Ga+3] [[^68Ga]3] | Biodistribution: Skin | 0.33
O=C([O-])CN(CCN(CC(=O)[O-])Cc1cc(CCC(=O)NC(P(=O)(O)O)P(=O)(O)O)ccc1[O-])Cc1cc(CCC(=O)NC2C(O)OC(CO)C(O)C2O)ccc1[O-].[68Ga+3] (centres unmarked) [[^68Ga]1b] | Biodistribution: Skin | 0.18
[18F-].[Na+] [[^18F]NaF, reference compound] | Biodistribution: Skin | 0.03
O=C(O)CN1CCN(CC(=O)O)CCN(CC(=O)NC(P(=O)(O)O)P(=O)(O)O)CCN(CC(=O)O)CC1.[68Ga] [[^68Ga]BPAMD, reference compound] | Biodistribution: Skin | 0.55

Next, consider the following compound.
**Q:** Return Biodistribution: Skin for the following compound: C[C@H](NC(=O)CCc1ccc([O-])c(CN(CCN(CC(=O)[O-])Cc2cc(CCC(=O)NC(P(=O)(O)O)P(=O)(O)O)ccc2[O-])CC(=O)[O-])c1)C(=O)O.[68Ga+3] [[^68Ga]1d]
**A:** 0.09

Data provenance: patent US10253052B2
